measured quantity: melting point

Solved entries:
# compound, melting point
measured = [
    ("CC1CC(=O)NN=C1c1ccc2c(c1)N(C)C(=O)C(C)O2 (stereo unspecified)", "184 to 185 °C"),
    ("Nc1cc(C(=O)O)cc(S(N)(=O)=O)c1Nc1cccc(C(F)(F)F)c1", "273 to 274 °C"),
    ("CC(C)N(C(=O)CNc1ccccc1N)c1ccccc1", "110 to 112 °C"),
    ("CCCCOCCOc1ccc(-c2ccc(N3CCCC3)c(C(C)=CC(=O)O)c2)cc1", "128 °C"),
    ("CC(C(=O)O)c1ccc(C(C)(C)C)cc1 (stereo unspecified)", "101 to 103 °C"),
]

Problem: Please report the recorded melting point for CSc1ccc2n1CCC2C#N (stereo unspecified) .
Result: 58 to 58.5 °C

Problem: Please report the recorded melting point for `Cc1nnnn1-c1ccc(/C(=C\C2CCCC2)C(=O)O)cc1Cl` .
Result: 216 to 219 °C

Problem: Please report the recorded melting point for Cc1cccc2c(=O)n(C3CCC(=O)NC3=O)c(C)nc12 (stereo unspecified) .
Result: 296 to 298 °C

Problem: Please report the recorded melting point for `NC(=O)c1ccccc1-c1cnn(CCN2CCCCC2)c1` .
Result: 168 °C

Problem: Please report the recorded melting point for `COC[C@H](C)Oc1cc(O)cc(C(=O)O)c1` .
Result: 95 °C

Problem: Please report the recorded melting point for C=CCOc1ccc(C(C)(C)C)cc1C(C(N)=O)c1ccccc1 (stereo unspecified) .
Result: 172 to 174 °C

====

measured quantity: melting point

Solved entries:
# molecule, melting point
measured = [
    ("Cc1c(-c2ccc(F)cc2)oc2c(-c3ccc(F)cc3)c(-c3ccc(S(C)(=O)=O)cc3)nn12", "257 to 259 °C"),
    ("O=C(NCCc1cccc2ccc(OC(c3ccccc3)c3ccccc3)cc12)C1CC1", "109 to 111 °C"),
]

Problem: Please report the recorded melting point for `OCCC1(c2ccccc2)CCNCC1` .
Result: 120 °C

====

measured quantity: melting point

Solved entries:
# compound, melting point
records = [
    ("CC1=NN(c2cc(Cl)c(C(=O)c3ccc(Cl)cc3)c(Cl)c2)C(=O)NC1", "257 to 259 °C"),
    ("O=C(O)CCC(=O)N1CCc2cc(S(=O)(=O)N3CCN(c4cccc(C(F)(F)F)c4)CC3)ccc21", "274 to 276 °C"),
    ("CCCCCCCCSc1nc(SCCCCCCCC)nc(-c2cc(C)c(O)c(C)c2)n1", "75 to 76 °C"),
]

Problem: Please report the recorded melting point for Cc1cc(NC(=O)CC(C)(C)C)c(C)c2c1OC(C)(C)C2c1ccc(C(C)C)cc1 (stereo not given) .
Result: 118 to 119 °C

Problem: Please report the recorded melting point for `Cn1nc(-c2cnc3[nH]cc(C(=O)NCC4CC4)c3n2)c2ccc(F)cc21` .
Result: 319 to 322 °C

====

Measured melting point of individual entries

# molecule, melting point
measured = [
    ("O=C1c2ccccc2C(=O)N1CCOCCOCCOCCOCCOCCN1C(=O)c2ccccc2C1=O", "124 to 126 °C"),
]

Problem: Please report the recorded melting point for `COc1cnc(CSc2nc3cc(OC(F)(F)C(F)F)ccc3[nH]2)c(C)c1OC` .
Result: 127 to 128 °C

Problem: Please report the recorded melting point for `O=[N+]([O-])c1ccc(-c2nc(-c3ccco3)no2)c(Cl)c1` .
Result: 124 to 125 °C
